All figures here come from patent US20200207859A1.

- Target Entity: CD74 (human), P04233
- Sequence (P04233 whole entry): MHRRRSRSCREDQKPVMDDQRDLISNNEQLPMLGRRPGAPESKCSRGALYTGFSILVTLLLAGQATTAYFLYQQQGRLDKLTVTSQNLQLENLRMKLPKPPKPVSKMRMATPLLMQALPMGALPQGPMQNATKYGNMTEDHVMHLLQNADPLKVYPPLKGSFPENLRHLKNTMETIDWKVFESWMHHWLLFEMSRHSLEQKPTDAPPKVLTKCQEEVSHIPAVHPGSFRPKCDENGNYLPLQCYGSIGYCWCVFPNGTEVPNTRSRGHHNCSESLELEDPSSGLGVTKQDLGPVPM
- Assay Text: cell-based or functional assay
Assay Readout: cell killing Span, ARP-1 (MM) cells (%)
Dear colleague, please return just the value in %, with no unit written.

Short answer for Conjugate E (anti-CD74 IgG-PEG4-MMAF conjugate) (antibody, V domains shown, here or on the partner: modified amino acid residue 30 (pAMF) according to Example 2, position not stated for this conjugate, linked to PEG4-MMAF) VH: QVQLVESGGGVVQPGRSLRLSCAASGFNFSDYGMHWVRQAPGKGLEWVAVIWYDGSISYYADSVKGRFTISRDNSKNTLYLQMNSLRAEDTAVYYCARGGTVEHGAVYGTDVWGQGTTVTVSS VL: DIQMTQSPSSVSASVGDRVTITCRASQGIGSWLAWYQQKPGKAPKLLIYAADRLQSGVPSRFSGSGSGTDFTLTISSLQPEDFATYYCQQYHTYPLTFGGGTKVEIK : cell killing Span, ARP-1 (MM) cells was 71
